Where do the numbers come from? From BindingDB's records for doi:10.1021/jm8001026.

Molecular target: Dihydroorotate dehydrogenase (quinone), mitochondrial (Plasmodium falciparum (isolate 3D7), UniProt Q08210)
Sequence (Q08210 whole entry): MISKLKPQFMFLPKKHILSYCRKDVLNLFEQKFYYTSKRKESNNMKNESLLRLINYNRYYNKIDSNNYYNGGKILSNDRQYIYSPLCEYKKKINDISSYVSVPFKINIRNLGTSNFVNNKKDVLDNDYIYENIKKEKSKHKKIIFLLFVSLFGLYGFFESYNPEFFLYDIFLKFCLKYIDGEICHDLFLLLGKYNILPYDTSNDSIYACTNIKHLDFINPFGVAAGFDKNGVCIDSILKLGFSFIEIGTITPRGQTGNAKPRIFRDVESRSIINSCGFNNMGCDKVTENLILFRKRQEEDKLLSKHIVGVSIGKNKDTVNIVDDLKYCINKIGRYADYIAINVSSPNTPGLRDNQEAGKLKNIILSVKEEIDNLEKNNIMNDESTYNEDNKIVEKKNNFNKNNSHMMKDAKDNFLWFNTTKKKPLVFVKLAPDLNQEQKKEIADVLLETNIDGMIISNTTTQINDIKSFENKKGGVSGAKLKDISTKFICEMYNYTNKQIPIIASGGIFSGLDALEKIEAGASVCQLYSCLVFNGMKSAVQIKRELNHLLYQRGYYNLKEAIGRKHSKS
Test: DHODH Inhibition Assay
Settings: pH 8; 20 °C
pIC50: −log10 of the molar value.
Measured pIC50 of individual entries

{"Compound": "Cc1cc(Nc2ccc(C(N)=O)cc2)n2ncnc2n1", "Result": "< 3.70"}

Task: Could you tell me which pIC50 is on file for Cc1cc(Nc2ccccc2)n2ncnc2n1 [JMC521864 Compund DSM12] ?
Result: < 4.00
